The measured values listed here are drawn from ChEMBL document CHEMBL1201862.

System: OVCAR-8
Assay: NCI tumour cell line growth inhibition, 48 h
Activity calls are given as the source filed them. Rule as the data show it: active = GI50 up to about 1.1 µM and inactive = higher.
Readout type: GI50

GI50 measured on NCCOc1cccc(C2(N3CCCCC3)CCCCC2)c1 = 33.4 µM (inactive)

###

System: ACHN
Experiment: NCI tumour cell line growth inhibition, 48 h
Calls of active or inactive are those of the source. Cut-off read from the data, not from the text of the source: active = GI50 up to about 1.1 µM and inactive = higher.
Permitted responses: TRUE (active), FALSE (inactive)

| Compound | Target or system | Category |
| --- | --- | --- |
| CCCCCCOc1ccc(NC2=C(Cl)C(=O)c3cccnc3C2=O)cc1 | ACHN | FALSE |
| Cc1ccc(NC(=O)c2ccc(OP(=O)(O)Nc3ccc(C)cc3)cc2)cc1 | ACHN | FALSE |
| C=C1CC[C@H]2C(C)=CC[C@H]3C(=C)C(=O)O[C@@H]3[C@@H]12 | ACHN | FALSE |
| C=C1C(=O)OC2C(C)C3C=CC(=O)[C@@]3(C)C(OC(=O)/C(C)=C/C)C1[C@@H]2OC(C)=O (stereo not given in full) | ACHN | TRUE |
| CC(C)=CC1C(C(=O)Oc2ccccc2C(C)C)C1(C)C (stereo not given) | ACHN | FALSE |
| Cc1nc(N)nc(S)c1CCCNc1ccccc1 | ACHN | FALSE |
| CSC(=N)N1N=C2c3ccccc3CC[C@@H]2[C@@H]1c1ccccc1 | ACHN | FALSE |
| O=C(Nc1ccc2nc(-c3ccccc3)cn2c1)Oc1ccccc1 | ACHN | FALSE |
| COC(=O)c1ccc(/C=C2\Oc3ccccc3C2=O)cc1 | ACHN | FALSE |

Next, consider the following compound.
input: # fetch the recorded call for COC(=O)C(/C(=N/NC(N)=O)C(=O)Nc1c(C)cccc1C(C)(C)C)c1nc2ccc(Cl)cc2nc1O (stereo not given) here
output: FALSE

###

Test system: MDA-N
Experiment: NCI tumour cell line growth inhibition, 48 h
Active and inactive are the calls of the source. No stated cut-off is given here; in the data, active = GI50 up to about 1.1 µM and inactive = higher.
Measured GI50, listed per entry for reference.

| Molecule | Measured |
| --- | --- |
| O=C(Nc1ccn(C2CCC(COC(c3ccccc3)(c3ccccc3)c3ccccc3)O2)c(=O)n1)c1ccccc1 (configuration not stated) | 3.57 µM (inactive) |
| CC(C)NC(=O)OCc1c(COC(=O)NC(C)C)n(C)c2c1ccc1cc(Cl)c(Cl)cc12 | 13.6 µM (inactive) |
| COc1cc2c(c(OC3OC(CO)C(O)C(O)C3O)c1)C(=O)CC(c1ccc(O)cc1)O2 (configuration not stated) | > 100 µM (inactive) |

The molecule CN(CCCCN1CCCC1)CCCCN(C)C(=O)Cc1ccc(Cl)c(Cl)c1 , when measured on MDA-N, yielded GI50 of 3.56 µM (inactive)

The molecule Cc1ccc(S(=O)(=O)Nn2c(S)c(C#N)c(-c3ccc(N(C)C)cc3)c(C#N)c2=O)cc1 , when measured on MDA-N, yielded GI50 of > 100 µM (inactive)

The molecule Cc1nc(N)nc(S)c1CCCNc1ccccc1 , when measured on MDA-N, yielded GI50 of 52 µM (inactive)

The molecule CC(=O)ON1C(=O)c2cccc3cccc(c23)C1=O , when measured on MDA-N, yielded GI50 of 18.3 µM (inactive)

###

Test system: KM-20L2
Assay: NCI tumour cell line growth inhibition, 48 h
Calls of active or inactive are those of the source. Rule as the data show it: active = GI50 up to about 1.1 µM and inactive = higher.
Permitted responses: y for active, n for inactive

Previously resolved entries follow.
| Molecule | Target or system | Category |
| --- | --- | --- |
| COC(=O)C(=O)C(C(=O)C(=O)Nc1ccc([N+](=O)[O-])cc1)c1nc2ccccc2nc1O (centres undefined) | KM-20L2 | n |
| CC(=O)O[C@@]12CO[C@@H]1C[C@H](O)[C@@]1(C)C(=O)[C@H](O)C3=C(C)[C@@H](OC(=O)[C@H](O)[C@@H](NC(=O)OC(C)(C)C)c4ccccc4)C[C@@](O)([C@@H](OC(=O)c4ccccc4)[C@H]21)C3(C)C [DOCETAXEL] | KM-20L2 | y |
| Cc1cc(C)n2c(-c3ccccc3)c(C)cc2n1 | KM-20L2 | n |

input: # fetch the recorded call for N#Cc1cc([N+](=O)[O-])ccc1NC(=O)C(=O)Nn1c(S)nc2ccccc2c1=O here
output: n
